Molecular target: T1, human TMEM106B (human, UniProt Q9NUM4 2-274)
T1 construct: Full-length, on transiently transfected HEK293 cells, or natively expressed on HeLa, U251 and A549 cells; also called huTMEM106B; huTMEM
Assay: FACS HEK+huTMEM, 0.1 ug/ml;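 note: flow cytometry binding of purified mouse IgG antibodies to HEK293 cells transiently expressing TMEM106B, read as median fluorescence intensity with propidium iodide positive dead cells gated out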
Please go through the items and note down their MFI.

State its MFI for this binder: anti-TMEM106B antibody TM-7 (antibody, V domains shown) VH: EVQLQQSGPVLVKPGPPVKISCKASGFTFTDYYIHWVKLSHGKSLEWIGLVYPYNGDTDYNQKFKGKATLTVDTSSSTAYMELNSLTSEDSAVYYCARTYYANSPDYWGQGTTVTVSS VL: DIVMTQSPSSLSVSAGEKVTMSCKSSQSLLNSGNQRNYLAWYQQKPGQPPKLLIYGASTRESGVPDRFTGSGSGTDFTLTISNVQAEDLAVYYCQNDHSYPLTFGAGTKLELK
9870

Output MFI of anti-TMEM106B antibody TM-30 (antibody, V domains shown, mouse IgG from hybridoma) VH: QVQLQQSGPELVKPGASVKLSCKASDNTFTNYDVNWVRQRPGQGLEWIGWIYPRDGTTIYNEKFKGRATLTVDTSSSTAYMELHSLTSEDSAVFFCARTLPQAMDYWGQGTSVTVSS VL: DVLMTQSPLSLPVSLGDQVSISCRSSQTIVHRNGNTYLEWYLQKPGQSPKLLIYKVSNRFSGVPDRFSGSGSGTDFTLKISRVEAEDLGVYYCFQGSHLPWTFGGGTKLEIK
18400

Give MFI for the following binder: anti-TMEM106B antibody TM-28 (antibody, V domains shown) VH: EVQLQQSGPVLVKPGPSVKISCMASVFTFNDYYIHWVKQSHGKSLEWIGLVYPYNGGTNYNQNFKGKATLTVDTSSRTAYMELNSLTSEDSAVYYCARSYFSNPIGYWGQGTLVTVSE VL: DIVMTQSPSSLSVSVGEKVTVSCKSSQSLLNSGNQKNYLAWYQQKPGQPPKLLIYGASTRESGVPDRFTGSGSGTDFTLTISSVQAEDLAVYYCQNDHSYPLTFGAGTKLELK
19800
